# TEST_TARGET: DLG4_3, P78352
# Sequence (P78352 306-403): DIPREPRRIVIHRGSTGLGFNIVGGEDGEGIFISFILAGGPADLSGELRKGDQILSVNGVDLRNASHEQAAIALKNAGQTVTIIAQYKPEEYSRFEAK
# EXPERIMENTAL_PROTOCOL: holdup assay
# Set-up: key: below the threshold = too weak to quantify, mostly under pKd 3.1 to 4
# CONDITION_SET: plain residues with an end cap or a label only (N-terminal biotin on a linker: ado-ado)
ENDPOINT_NAME: pKd

Worked examples, 4 binders total:
| BINDER | ENDPOINT_NAME | MEASURED_VALUE |
| --- | --- | --- |
| HLSTRQGTCV [ATRNL1, Q5VV63] | pKd | 3.87 |
| PKSNSSKEYV [CLDN7, O95471] | pKd | below the threshold |
| NISARRFTLC [FAM167B, Q9BTA0] | pKd | 4.38 |
| RSPVATATSC [DUSP5, Q16690] | pKd | below the threshold |

Could you report pKd for every entry in the following list?
1. SQPLLVHDDV [KIT, P10721]
2. LVEEEEPMNL [HDAC7, Q8WUI4]
3. ADEMICITTL [CACNA1D, Q01668]
4. SRPHTNETSL [MCC, P23508]
5. QKNKDREYYV [NRXN3, Q9HDB5]
6. SKQFDKNAYV [CLDN10, P78369]

Marked response:
1: below the threshold; 2: below the threshold; 3: below the threshold; 4: 3.95; 5: below the threshold; 6: below the threshold
